System: 5-hydroxytryptamine receptor 2A (Rattus norvegicus, UniProt P14842) | Read-out: pKi
Sequence (P14842 whole entry): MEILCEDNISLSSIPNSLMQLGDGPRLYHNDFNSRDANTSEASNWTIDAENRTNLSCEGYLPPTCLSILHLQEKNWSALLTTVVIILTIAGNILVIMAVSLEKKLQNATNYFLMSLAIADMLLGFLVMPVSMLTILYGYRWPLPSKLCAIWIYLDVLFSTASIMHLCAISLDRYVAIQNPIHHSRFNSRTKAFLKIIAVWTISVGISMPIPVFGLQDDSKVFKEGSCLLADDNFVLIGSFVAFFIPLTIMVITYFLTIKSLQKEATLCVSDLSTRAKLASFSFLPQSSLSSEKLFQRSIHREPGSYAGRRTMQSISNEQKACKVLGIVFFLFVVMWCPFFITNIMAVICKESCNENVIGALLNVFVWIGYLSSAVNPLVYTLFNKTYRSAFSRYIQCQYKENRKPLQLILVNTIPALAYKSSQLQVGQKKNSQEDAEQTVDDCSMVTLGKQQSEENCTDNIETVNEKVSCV
Quick note: pKi values are minus log10 of concentrations in mol/L.

{"columns": ["Structure As Smiles", "pKi"],
 "data": [
  ["Cc1cccc(S(=O)(=O)NCCN=C(N)N2CCC(c3ccccc3)CC2)c1", 6.80],
  ["Cc1cccc(S(=O)(=O)NCCN=C(N)N2CCC(C)CC2)c1", 6.83],
  ["COc1ccccc1N1CCN(C(=O)NC(=N)NCc2cccc3ccccc23)CC1", 6.82]
]}

Note to self: pKi of `Cc1cccc(S(=O)(=O)NCCCN=C(N)N2CCC(c3ccccc3)CC2)c1` with 5-hydroxytryptamine receptor 2A (Rattus norvegicus, UniProt P14842) was 5.90

Fill in: 5-hydroxytryptamine receptor 2A (Rattus norvegicus, UniProt P14842) pKi for `COc1ccccc1N1CCN(C(N)=NCCCNS(=O)(=O)c2cccc3ccccc23)CC1` = 6.03

The reported pKi value, 5-hydroxytryptamine receptor 2A (Rattus norvegicus, UniProt P14842), for `NC(=NCCCCNS(=O)(=O)c1cccc2ccccc12)N1CCc2ccccc2C1` reads 6.71

The recorded pKi with 5-hydroxytryptamine receptor 2A (Rattus norvegicus, UniProt P14842) for `COc1ccccc1N1CCN(C(N)=NCCNS(=O)(=O)c2cccc(C)c2)CC1` was 5.94

---

- Study System: 5-hydroxytryptamine receptor 7 (Homo sapiens)
- Sequence (P34969 whole entry): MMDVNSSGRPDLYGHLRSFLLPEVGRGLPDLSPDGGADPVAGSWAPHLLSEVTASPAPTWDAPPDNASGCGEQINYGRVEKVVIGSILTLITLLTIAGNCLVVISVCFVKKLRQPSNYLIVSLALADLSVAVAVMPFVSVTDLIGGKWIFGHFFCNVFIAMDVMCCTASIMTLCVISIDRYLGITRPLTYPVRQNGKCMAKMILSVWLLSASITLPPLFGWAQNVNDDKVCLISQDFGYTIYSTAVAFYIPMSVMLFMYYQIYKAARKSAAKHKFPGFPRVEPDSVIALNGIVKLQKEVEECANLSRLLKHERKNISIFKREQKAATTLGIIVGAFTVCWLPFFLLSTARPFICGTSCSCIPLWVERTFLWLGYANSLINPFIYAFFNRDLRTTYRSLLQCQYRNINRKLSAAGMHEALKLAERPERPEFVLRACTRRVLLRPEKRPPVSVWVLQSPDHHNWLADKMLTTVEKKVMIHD
Threshold 200 nM: Ki strictly smaller gives yes (1), otherwise no (0).

Solved cases below.
{"columns": ["Structure As Smiles", "Study System", "Discrete Label"],
 "data": [
  ["COc1ccccc1N1CCN(C(=N)NCCCCNS(=O)(=O)c2ccc(C)cc2)CC1", "5-hydroxytryptamine receptor 7 (Homo sapiens)", "yes (1)"],
  ["CCOc1ccccc1CNC(=N)NC(=O)NC", "5-hydroxytryptamine receptor 7 (Homo sapiens)", "yes (1)"],
  ["Cc1cccc(S(=O)(=O)NCCCCN=C(N)N2CCC(c3ccccc3)CC2)c1", "5-hydroxytryptamine receptor 7 (Homo sapiens)", "yes (1)"],
  ["Cc1cccc(S(=O)(=O)NCCN=C(N)N2CCC(C)CC2)c1", "5-hydroxytryptamine receptor 7 (Homo sapiens)", "yes (1)"],
  ["COc1ccccc1N1CCN(C(N)=NCCNS(=O)(=O)c2cccc(C)c2)CC1", "5-hydroxytryptamine receptor 7 (Homo sapiens)", "no (0)"]
]}

Pending compound:
# input # TODO verify Ki < 200 nM strictly for this compound: `COc1ccccc1N1CCN(CCCNS(=O)(=O)c2ccc3ccccc3c2)CC1`
# output yes (1)

---

Listing: Ki of selected molecules
- Study System: 5-hydroxytryptamine receptor 1A (Rattus norvegicus, UniProt P19327)
- Sequence (P19327 whole entry): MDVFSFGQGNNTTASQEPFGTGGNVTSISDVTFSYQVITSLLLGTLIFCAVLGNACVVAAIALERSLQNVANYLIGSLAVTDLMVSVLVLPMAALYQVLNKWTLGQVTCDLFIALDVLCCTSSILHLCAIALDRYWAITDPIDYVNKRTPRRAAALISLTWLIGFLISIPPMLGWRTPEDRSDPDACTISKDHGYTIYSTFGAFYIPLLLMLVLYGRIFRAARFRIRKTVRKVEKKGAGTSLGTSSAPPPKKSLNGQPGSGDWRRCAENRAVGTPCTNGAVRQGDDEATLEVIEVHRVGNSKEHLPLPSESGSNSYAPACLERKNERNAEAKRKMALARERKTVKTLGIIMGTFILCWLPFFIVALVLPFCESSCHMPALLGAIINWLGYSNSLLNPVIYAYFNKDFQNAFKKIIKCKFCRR
Respond with the figure and its unit, in that order.

{"columns": ["Structure As Smiles", "Study System", "Endpoint Value"],
 "data": [
  ["Cc1cccc(S(=O)(=O)NCCN=C(N)N2CCC(c3ccccc3)CC2)c1", "5-hydroxytryptamine receptor 1A (Rattus norvegicus, UniProt P19327)", "4.55 µM"],
  ["COc1ccccc1N1CCN(CCCNS(=O)(=O)c2ccc3ccccc3c2)CC1", "5-hydroxytryptamine receptor 1A (Rattus norvegicus, UniProt P19327)", "0.0046 µM"],
  ["COc1ccccc1N1CCN(C(N)=NCCCNS(=O)(=O)c2cccc3ccccc23)CC1", "5-hydroxytryptamine receptor 1A (Rattus norvegicus, UniProt P19327)", "9.86 µM"],
  ["NC(=NCCCCNS(=O)(=O)c1cccc2ccccc12)N1CCc2ccccc2C1", "5-hydroxytryptamine receptor 1A (Rattus norvegicus, UniProt P19327)", "2.08 µM"]
]}

Please turn your attention to the following entry.
Value sought: Ki, system 5-hydroxytryptamine receptor 1A (Rattus norvegicus, UniProt P19327), item `COc1ccccc1N1CCN(C(=O)NC(=N)NCc2cccc3ccccc23)CC1` . Result: 0.52 µM
